Assignment: determine reported pIC50 for the given compounds.
- Test system: HTT
- assay details: RT-qPCR splicing assay, HTT AJ/CJ mRNA
- Assay type: cell-based, human
- condition notes: Homo sapiens, 24 h, decrease in canonical junction mRNA, A673 or K562 cells
pIC50: −log10 of the molar value.

Sample answers from the record:
[
  {
    "compound": "CN(c1ccc2c(n1)OCc1cc(-n3nccn3)ccc1-2)[C@@H]1C[C@H]2CC[C@@H](C1)N2",
    "pIC50": "> 7.00"
  },
  {
    "compound": "CN(c1ccc2c(n1)OCc1cc(-c3cnn(C)c(=O)c3)ccc1-2)[C@@H]1C[C@H]2CC[C@@H](C1)N2",
    "pIC50": "> 7.00"
  }
]

Below: the item to evaluate.
IN: Entry under review: CC(C)(C)NC1CCN(c2ccc3c(n2)OCc2cc(-c4c(F)cn[nH]c4=O)ccc2-3)C1 (stereo not drawn) . Reported pIC50?
OUT: < 5.00
